# assay: Human HepG2 cell viability assay in 384 well format
# Assay type: toxicity, cell-based
# Parameters: dose 125 nL, time 70.5 hour; concentration not given beside the values
# experimental conditions: HepG2 cells, read-out: Inhibition
metric name: cytotoxicity at 70.5 h (%)
Dear colleague, please return just the value in %, with no unit written.

>  <compound>
COc1ccccc1-c1nccnc1C1CCN(C(C)=O)CC1

>  <u>
%

>  <reading>
-6.14

$$$$
>  <compound>
CC(=O)N1CCCCCC1C1CCN(Cc2nnc(C(C)(C)C)o2)CC1 (stereo unspecified)

>  <u>
%

>  <reading>
-5.64

$$$$
>  <compound>
Cc1ccc2cc(C(=O)N3CCC(Nc4cccnn4)CC3)[nH]c2c1

>  <u>
%

>  <reading>
21.4

$$$$
>  <compound>
Cc1cccc(CN2C(=O)C[C@H]3[C@@H]2CCN3CC2CC2)n1

>  <u>
%

>  <reading>
-2.5

$$$$
>  <compound>
COCC(=O)N1C[C@@H]2COC[C@]2(COC)C1

>  <u>
%

>  <reading>
-9.06

$$$$

Lab note: next compound to report on.
Query string: Consider the compound CS(=O)(=O)c1ccc(-c2ccccc2C(=O)O)cc1 and give its measured cytotoxicity at 70.5 h.
Result string: -4.68

All values here come from ChEMBL document CHEMBL3507680.
